System: Saccharomyces cerevisiae;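 also: PSI is a weighted mean of sequencing reads over stability bins, variants kept only with over 10 reads, mCherry proximal and sfGFP distal, peptide attached via GGGS linker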
procedure_summary: protein stability index of tFT-peptide fusion (C-terminal peptide) (PSI (0-1 scale)); higher = more stable (slower turnover)
test_parameters: genetic background: wild type; temperature: 30 C
quantity_measured: protein stability index

Ask | What does the data say about its protein stability index? Entry: YRGFFIGKLMLV
Reply | 0.201

Ask | What does the data say about its protein stability index? Entry: LTGSPDSNPNSV
Reply | 0.68

Ask | What does the data say about its protein stability index? Entry: VGNPHKRGWRAR
Reply | 0.609

Ask | What does the data say about its protein stability index? Entry: LLGSGTVSGCAG
Reply | 0.642

Ask | What does the data say about its protein stability index? Entry: DPPRPIMRIHMI
Reply | 0.181

Ask | What does the data say about its protein stability index? Entry: AHLGRDVGRGTW
Reply | 0.729

Ask | What does the data say about its protein stability index? Entry: QLLCMSEPFVRE
Reply | 0.699

Ask | What does the data say about its protein stability index? Entry: VFLQRIDDKSPY
Reply | 0.712

Ask | What does the data say about its protein stability index? Entry: CTFSGLLEMAGR
Reply | 0.725

Ask | What does the data say about its protein stability index? Entry: WYITVMSHFNET
Reply | 0.753

Ask | What does the data say about its protein stability index? Entry: APAPHSPNFPFS
Reply | 0.699

Ask | What does the data say about its protein stability index? Entry: GRGVGCVRRVGG
Reply | 0.676

Ask | What does the data say about its protein stability index? Entry: ECCKRFCCRFVA
Reply | 0.338

Ask | What does the data say about its protein stability index? Entry: GRGWGGALGWCG
Reply | 0.668

Ask | What does the data say about its protein stability index? Entry: ASRISTAFPVPP
Reply | 0.685

Ask | What does the data say about its protein stability index? Entry: IARSVLRIGVWG
Reply | 0.612

Ask | What does the data say about its protein stability index? Entry: FRPFLPPSRTFS
Reply | 0.676

Ask | What does the data say about its protein stability index? Entry: PPPAPPPPLPPR
Reply | 0.688

Ask | What does the data say about its protein stability index? Entry: PFHCLPRPPCYW
Reply | 0.708
